- experimental context: in 1,2-dichloroethane, 318.15 K
observable: solubility (mole fraction)
Numbers only.

Specify measured solubility (mole fraction) for O=[N+]([O-])c1cc(F)c(F)cc1[N+](=O)[O-] .
0.00314

###

- experimental context: in ethyl acetate, 303.15 K
observable: solubility (mole fraction)
Answers are plain numbers.

Specify measured solubility (mole fraction) for O=[N+]([O-])c1cc(F)c(F)cc1[N+](=O)[O-] .
0.00241

###

- experimental context: in m-xylene, 293.15 K
observable: solubility (mole fraction)
Give bare numbers.

Specify measured solubility (mole fraction) for O=[N+]([O-])c1cc(F)c(F)cc1[N+](=O)[O-] .
0.00176

###

- experimental context: in toluene, 308.15 K
observable: solubility (mole fraction)
One number for each entry.

Specify measured solubility (mole fraction) for O=[N+]([O-])c1cc(F)c(F)cc1[N+](=O)[O-] .
0.00268

###

- experimental context: in benzene, 293.15 K
observable: solubility (mole fraction)
Numbers only.

Specify measured solubility (mole fraction) for O=[N+]([O-])c1cc(F)c(F)cc1[N+](=O)[O-] .
0.00143

###

- experimental context: in o-xylene, 318.15 K
observable: solubility (mole fraction)

Specify measured solubility (mole fraction) for O=[N+]([O-])c1cc(F)c(F)cc1[N+](=O)[O-] .
0.00441

###

- experimental context: in tetrachloromethane, 303.15 K
observable: solubility (mole fraction)
One number for each entry.

Specify measured solubility (mole fraction) for O=[N+]([O-])c1cc(F)c(F)cc1[N+](=O)[O-] .
4.7e-05

###

- experimental context: in n-butanol, 303.15 K
observable: solubility (mole fraction)
One number for each entry.

Specify measured solubility (mole fraction) for O=[N+]([O-])c1cc(F)c(F)cc1[N+](=O)[O-] .
9.5e-05

###

- experimental context: in n-butanol, 313.15 K
observable: solubility (mole fraction)
One number for each entry.

Specify measured solubility (mole fraction) for O=[N+]([O-])c1cc(F)c(F)cc1[N+](=O)[O-] .
0.000198

###

- experimental context: in ethyl acetate, 318.15 K
observable: solubility (mole fraction)
Answers are plain numbers.

Specify measured solubility (mole fraction) for O=[N+]([O-])c1cc(F)c(F)cc1[N+](=O)[O-] .
0.00433

###

- experimental context: in ethyl formate, 323.15 K
observable: solubility (mole fraction)
Answers are plain numbers.

Specify measured solubility (mole fraction) for O=[N+]([O-])c1cc(F)c(F)cc1[N+](=O)[O-] .
0.00613

###

- experimental context: in methanol, 323.15 K
observable: solubility (mole fraction)
Give bare numbers.

Specify measured solubility (mole fraction) for O=[N+]([O-])c1cc(F)c(F)cc1[N+](=O)[O-] .
0.000774

###

- experimental context: in isopropanol, 328.15 K
observable: solubility (mole fraction)
One number for each entry.

Specify measured solubility (mole fraction) for O=[N+]([O-])c1cc(F)c(F)cc1[N+](=O)[O-] .
0.000296

###

- experimental context: in o-xylene, 298.15 K
observable: solubility (mole fraction)
Answers are plain numbers.

Specify measured solubility (mole fraction) for O=[N+]([O-])c1cc(F)c(F)cc1[N+](=O)[O-] .
0.00236

###

- experimental context: in o-xylene, 333.15 K
observable: solubility (mole fraction)
Give bare numbers.

Specify measured solubility (mole fraction) for O=[N+]([O-])c1cc(F)c(F)cc1[N+](=O)[O-] .
0.00701
